Where do these numbers come from? They come from patent US6087355A.

Where a name gives a salt, the structure may show the parent alone.
S. aureus Col8A(Meth^S)(lac^-) MIC data
READOUT: MIC

• NCCSCc1nnsc1SC1=C(C(=O)O)N2C(=O)[C@@H](NC(=O)Cc3ccccc3)[C@H]2SC1.O=C(O)C(F)(F)F = ≤ 0.06 µg/mL
• Nc1nc(/C(=N/O)C(=O)N[C@@H]2C(=O)N3C(C(=O)O)=C(Sc4ccncc4CSC4CCNC4)CS[C@H]23)c(Cl)s1 (stereo partly drawn) [Cmpd 42, trifluoroacetic acid salt] = 0.25 µg/mL
• NCC(=O)NCCCSCc1cnccc1SC1=C(C(=O)O)N2C(=O)[C@@H](NC(=O)/C(=N\O)c3nc(N)sc3Cl)[C@H]2SC1 [Cmpd 35, trifluoroacetic acid salt] = 0.25 µg/mL
